- Procedure text: in vitro
- Format: cell-based
- Condition info: human
Non-standard residues stand in square brackets, D forms with d. Residues, ends and D or L forms follow the SMILES beside them. *: point of attachment. RhodamineB = CCN(CC)c1ccc2c(-c3ccccc3C(=O)*)c3ccc(=[N+](CC)CC)cc-3oc2c1; Gly(Nα-4-Cl-benzyl) = O=C(O)CNCc1ccc(Cl)cc1; Nphe = O=C(O)CNCc1ccccc1; NBuGly = CCCCNCC(=O)O; Nlys = NCCCCNCC(=O)O
Overview of reported IC50 at 72 h across a group of compounds:

compound="CCCCN1CC(=O)N(Cc2ccccc2)CC(=O)N(CCCCNC(=O)c2ccccc2-c2c3ccc(=[N+](CC)CC)cc-3oc3cc(N(CC)CC)ccc23)CC(=O)N[C@@H](Cc2ccccc2)C1=O [17-Rhod, cyclo-(l-Phe-N3m-N1ph-N4am(Rhod))] (cyclo(F[NBuGly][Nphe][Nlys](RhodamineB)))" measured_quantity="IC50 at 72 h" endpoint_result="> 50 µM"
compound="CCN(CC)c1ccc2c(-c3ccccc3C(=O)NCCCCN3CC(=O)N[C@@H](Cc4ccccc4)C(=O)N(Cc4ccccc4)CC(=O)N(Cc4ccccc4)CC3=O)c3ccc(=[N+](CC)CC)cc-3oc2c1 [15-Rhod, cyclo-(l-Phe-N1ph-N1ph-N4am(Rhod))] (cyclo(F[Nphe][Nphe][Nlys](RhodamineB)))" measured_quantity="IC50 at 72 h" endpoint_result="> 50 µM"

Then there is this compound:
### Prompt Which value of IC50 at 72 h has been reported for CCN(CC)c1ccc2c(-c3ccccc3C(=O)NCCCCN3CC(=O)N(Cc4ccc(Cl)cc4)CC(=O)N(Cc4ccc(Cl)cc4)CC(=O)N(Cc4ccc(Cl)cc4)CC(=O)N[C@@H](Cc4ccccc4)C(=O)N[C@@H](Cc4ccccc4)C3=O)c3ccc(=[N+](CC)CC)cc-3oc2c1 [23-Rhod] (cyclo(F[Nlys](RhodamineB)[Gly(Nα-4-Cl-benzyl)][Gly(Nα-4-Cl-benzyl)][Gly(Nα-4-Cl-benzyl)]F)) in the records?
### Response 6 µM

----------
Overview of reported IC50 at 72 h across a group of molecules:
- Procedure text: in vitro
- Format: cell-based
- Condition info: human
Non-standard residues stand in square brackets, D forms with d. Residues, ends and D or L forms follow the SMILES beside them. *: point of attachment. RhodamineB = CCN(CC)c1ccc2c(-c3ccccc3C(=O)*)c3ccc(=[N+](CC)CC)cc-3oc2c1; Gly(Nα-4-Cl-benzyl) = O=C(O)CNCc1ccc(Cl)cc1; Nphe = O=C(O)CNCc1ccccc1; Nlys = NCCCCNCC(=O)O
Numeric only. Scale: µM

molecule="CCN(CC)c1ccc2c(-c3ccccc3C(=O)NCCCCN3CC(=O)N(Cc4ccccc4)CC(=O)N[C@@H](Cc4ccccc4)C(=O)N(Cc4ccc(Cl)cc4)CC3=O)c3ccc(=[N+](CC)CC)cc-3oc2c1 [16-Rhod, cyclo-(l-Phe-N1ph^pCl-N4am(Rhod)-N1ph)] (cyclo(F[Gly(Nα-4-Cl-benzyl)][Nlys](RhodamineB)[Nphe]))" measured_quantity="IC50 at 72 h" endpoint_result=30
molecule="CCN(CC)c1ccc2c(-c3ccccc3C(=O)NCCCC[C@@H]3NC(=O)CN(Cc4ccccc4)C(=O)CN(Cc4ccccc4)C(=O)[C@H](Cc4c[nH]c5ccccc45)NC3=O)c3ccc(=[N+](CC)CC)cc-3oc2c1 [19-Rhod, cyclo-(l-Trp-N1ph-N1ph-l-Lys(Rhod))] (cyclo(K(RhodamineB)W[Nphe][Nphe]))" measured_quantity="IC50 at 72 h" endpoint_result=34
molecule="NCCCCN1CC(=O)N[C@@H](Cc2ccccc2)C(=O)N[C@@H](Cc2ccccc2)C(=O)N(Cc2ccc(Cl)cc2)CC(=O)N(Cc2ccc(Cl)cc2)CC(=O)N(Cc2ccc(Cl)cc2)CC1=O [compound 23] (cyclo(FF[Gly(Nα-4-Cl-benzyl)][Gly(Nα-4-Cl-benzyl)][Gly(Nα-4-Cl-benzyl)][Nlys]))" measured_quantity="IC50 at 72 h" endpoint_result=20

Then there is this molecule:
### Prompt Which value of IC50 at 72 h has been reported for CCN(CC)c1ccc2c(-c3ccccc3C(=O)NCCCCN3CC(=O)N(Cc4ccccc4)CC(=O)N(Cc4ccccc4)CC(=O)N(Cc4ccccc4)CC(=O)N[C@@H](Cc4ccccc4)C(=O)N[C@@H](Cc4ccccc4)C3=O)c3ccc(=[N+](CC)CC)cc-3oc2c1 [22-Rhod] (cyclo(FF[Nlys](RhodamineB)[Nphe][Nphe][Nphe])) in the records?
### Response 44

----------
- Procedure text: in vitro
- Format: cell-based
- Condition info: human
Non-standard residues stand in square brackets, D forms with d. Residues, ends and D or L forms follow the SMILES beside them. *: point of attachment. RhodamineB = CCN(CC)c1ccc2c(-c3ccccc3C(=O)*)c3ccc(=[N+](CC)CC)cc-3oc2c1; Gly(Nα-4-Cl-benzyl) = O=C(O)CNCc1ccc(Cl)cc1; Nphe = O=C(O)CNCc1ccccc1; NBuGly = CCCCNCC(=O)O; Nlys = NCCCCNCC(=O)O
Overview of reported IC50 at 72 h across a group of compounds:

compound="NCCCCN1CC(=O)N(Cc2ccccc2)CC(=O)N[C@@H](Cc2ccccc2)C(=O)N(Cc2ccc(Cl)cc2)CC1=O [compound 16, cyclo-(l-Phe-N1ph^pCl-N4am-N1ph)] (cyclo(F[Gly(Nα-4-Cl-benzyl)][Nlys][Nphe]))" endpoint_result="> 50 µM"
compound="CCN(CC)c1ccc2c(-c3ccccc3C(=O)NCCCC[C@@H]3NC(=O)CN(Cc4ccc(Cl)cc4)C(=O)CN(Cc4ccc(Cl)cc4)C(=O)[C@H](Cc4c[nH]c5ccccc45)NC3=O)c3ccc(=[N+](CC)CC)cc-3oc2c1 [20-Rhod] (cyclo([Gly(Nα-4-Cl-benzyl)][Gly(Nα-4-Cl-benzyl)]K(RhodamineB)W))" endpoint_result="> 50 µM"

Then there is this compound:
### Prompt Which value of IC50 at 72 h has been reported for CCCCN1CC(=O)N[C@@H](CCCCN)C(=O)N[C@@H](Cc2ccc(O)cc2)C(=O)N(CCCC)CC1=O [compound 21, cyclo-(l-Tyr-N3m-N3m-l-Lys)] (cyclo(KY[NBuGly][NBuGly])) in the records?
### Response > 50 µM
